Biological target: MAPK8 (Homo sapiens, UniProt P45983)
Sequence (P45983 whole entry): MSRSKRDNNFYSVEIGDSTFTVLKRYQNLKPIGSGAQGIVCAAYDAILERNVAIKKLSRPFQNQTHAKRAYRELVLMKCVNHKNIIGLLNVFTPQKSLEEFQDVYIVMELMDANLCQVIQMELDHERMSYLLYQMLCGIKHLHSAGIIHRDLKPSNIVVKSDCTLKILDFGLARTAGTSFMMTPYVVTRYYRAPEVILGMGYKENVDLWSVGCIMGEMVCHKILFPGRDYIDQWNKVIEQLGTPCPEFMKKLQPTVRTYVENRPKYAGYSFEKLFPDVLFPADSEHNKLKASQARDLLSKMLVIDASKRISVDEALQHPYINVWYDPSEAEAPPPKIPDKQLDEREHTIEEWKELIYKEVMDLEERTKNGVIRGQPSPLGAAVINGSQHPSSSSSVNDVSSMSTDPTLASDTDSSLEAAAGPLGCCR
attribute_measured: IC50

// query Which IC50 reading was recorded for the molecule Cl.NCC1(c2nc(-c3ccc(Cl)c(O)c3)c(-c3ccncc3)[nH]2)CCCCC1 ?
// result > 20 µM

// query Need IC50 of CN(C)CC(O)COc1ccc(Nc2ncc([N+](=O)[O-])c(Nc3ccccc3O)n2)cc1.O=C(O)C(F)(F)F (centres unmarked) , thanks.
// result > 20 µM

---

Target: TYK2 (Homo sapiens)
Sequence (P29597 whole entry): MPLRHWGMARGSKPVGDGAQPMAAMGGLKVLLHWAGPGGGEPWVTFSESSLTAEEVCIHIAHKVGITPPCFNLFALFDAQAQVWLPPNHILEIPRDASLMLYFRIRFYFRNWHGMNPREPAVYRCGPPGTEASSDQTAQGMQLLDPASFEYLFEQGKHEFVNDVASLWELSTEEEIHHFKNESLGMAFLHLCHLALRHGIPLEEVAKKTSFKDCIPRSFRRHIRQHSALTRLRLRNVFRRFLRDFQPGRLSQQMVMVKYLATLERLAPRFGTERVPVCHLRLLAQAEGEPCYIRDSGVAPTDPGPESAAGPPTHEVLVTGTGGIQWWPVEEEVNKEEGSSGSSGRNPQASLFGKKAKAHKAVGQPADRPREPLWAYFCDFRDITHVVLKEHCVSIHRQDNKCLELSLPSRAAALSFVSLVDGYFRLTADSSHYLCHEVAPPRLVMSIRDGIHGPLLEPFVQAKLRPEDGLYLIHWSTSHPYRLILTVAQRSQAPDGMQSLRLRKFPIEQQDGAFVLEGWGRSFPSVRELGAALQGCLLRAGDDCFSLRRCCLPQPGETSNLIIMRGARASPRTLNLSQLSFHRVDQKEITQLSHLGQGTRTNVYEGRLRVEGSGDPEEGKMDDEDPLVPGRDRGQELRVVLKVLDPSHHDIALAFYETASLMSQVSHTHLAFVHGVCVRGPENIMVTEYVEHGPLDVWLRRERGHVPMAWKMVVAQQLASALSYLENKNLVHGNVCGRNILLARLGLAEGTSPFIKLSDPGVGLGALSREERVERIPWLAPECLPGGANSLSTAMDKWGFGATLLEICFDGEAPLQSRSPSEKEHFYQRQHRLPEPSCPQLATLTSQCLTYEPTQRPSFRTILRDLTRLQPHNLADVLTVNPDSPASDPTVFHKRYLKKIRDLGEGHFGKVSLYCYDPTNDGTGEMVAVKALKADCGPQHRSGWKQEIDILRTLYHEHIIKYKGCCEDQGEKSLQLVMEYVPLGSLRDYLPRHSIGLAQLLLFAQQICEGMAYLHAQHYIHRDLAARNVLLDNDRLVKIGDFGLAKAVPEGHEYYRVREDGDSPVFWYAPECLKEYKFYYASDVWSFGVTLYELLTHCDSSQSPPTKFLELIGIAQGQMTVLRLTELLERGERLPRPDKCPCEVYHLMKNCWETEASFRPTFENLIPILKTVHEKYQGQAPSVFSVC
attribute_measured: IC50 (µM)
Write it as a number; the unit µM goes unstated.

// query Using the record for CN(C)CC(O)COc1ccc(Nc2ncc([N+](=O)[O-])c(Nc3ccccc3O)n2)cc1.O=C(O)C(F)(F)F (centres unmarked) [TCMDC-141399] , report its IC50.
// result 1.9
